Could you please report measured self-splicing fitness (ln) for the items listed next?
experiment: self-splicing fitness, log relative to wild type (ln ratio); higher = more splicing; Tetrahymena group I intron in knt gene, E. coli kanamycin selection, DiMSum; sequences stand for … in CUCUCU…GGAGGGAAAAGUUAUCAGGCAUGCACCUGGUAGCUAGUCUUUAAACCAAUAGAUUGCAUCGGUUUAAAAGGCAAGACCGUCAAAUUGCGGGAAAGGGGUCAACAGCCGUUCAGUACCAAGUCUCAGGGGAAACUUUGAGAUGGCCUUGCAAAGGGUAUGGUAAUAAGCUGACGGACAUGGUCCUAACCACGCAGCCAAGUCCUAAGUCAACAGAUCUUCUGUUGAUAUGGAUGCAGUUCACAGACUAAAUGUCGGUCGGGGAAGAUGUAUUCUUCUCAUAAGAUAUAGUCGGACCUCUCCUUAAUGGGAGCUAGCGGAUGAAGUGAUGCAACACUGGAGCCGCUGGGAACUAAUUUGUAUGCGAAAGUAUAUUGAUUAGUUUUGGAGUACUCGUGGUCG;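 further: selection with 25 µg/mL kanamycin versus none on LB agar overnight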
condition details: 37 °C
One number for each entry.

| biosequence | self-splicing fitness (ln) |
| --- | --- |
| GCGCAGCAAUAUUACGUUAG | -2.26 |
| GGUUAGCAAUAUUACGCUAU | -2.72 |

Parameters: items (list). Returns: self-splicing fitness (ln) for each item.
1. UCAUAGCAAUAUUACGGCUA
2. GGUGAGCAAUAUUACGUGAA
3. AUCAAGCAAUAUUACGGGGG

Response:
1: -2.37; 2: -1.27; 3: -2.64

Parameters: items (list). Returns: self-splicing fitness (ln) for each item.
1. AACGAGCAAUAUUACGGAGC
2. ACGUAGCAAUAUUACGGGGC
3. GUAGAGCAAUAUUACGCUUG

Response:
-2.05
-2.73
-0.536

Parameters: items (list). Returns: self-splicing fitness (ln) for each item.
1. GAUAAGCAAUAUUACGCUUC
2. CAAUAGCAAUAUUACGUUAU

Response:
1. -3.04
2. -1.57

* * *

experiment: self-splicing fitness, log relative to wild type (ln ratio); higher = more splicing; Tetrahymena group I intron in knt gene, E. coli kanamycin selection, DiMSum; sequences stand for … in CUCUCU…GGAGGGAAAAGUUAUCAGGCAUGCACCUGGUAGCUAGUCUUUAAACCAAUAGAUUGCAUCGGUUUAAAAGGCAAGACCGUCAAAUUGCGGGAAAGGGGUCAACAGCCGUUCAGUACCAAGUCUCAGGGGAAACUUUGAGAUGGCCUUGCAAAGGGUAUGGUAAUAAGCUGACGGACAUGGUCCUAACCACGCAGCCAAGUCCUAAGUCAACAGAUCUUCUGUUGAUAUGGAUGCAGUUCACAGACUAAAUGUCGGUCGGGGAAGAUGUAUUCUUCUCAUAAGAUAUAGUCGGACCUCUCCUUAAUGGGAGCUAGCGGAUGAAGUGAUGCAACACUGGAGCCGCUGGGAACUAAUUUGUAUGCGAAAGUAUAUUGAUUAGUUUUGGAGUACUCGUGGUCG
condition details: 30 °C
Records here are stratified by self-splicing fitness (ln); strata: bottom bin: < -3; middle bin: ≥ -3 and < -1; top bin: ≥ -1

Request: Lab log: CUAAAGCAAUAUUACGUUGG — assign self-splicing fitness (ln) category
Response: middle bin

Request: Lab log: GACCAGCAAUAUUACGUGCC — assign self-splicing fitness (ln) category
Response: top bin

Request: Lab log: UAGUAGCAAUAUUACGGCGG — assign self-splicing fitness (ln) category
Response: top bin

Request: Lab log: ACCUAGCAAUAUUACGCAGG — assign self-splicing fitness (ln) category
Response: bottom bin

Request: Lab log: UCUCAGCAAUAUUACGGUGA — assign self-splicing fitness (ln) category
Response: middle bin
